TESTED_SYSTEM: FGFR1 (human)
PROTOCOL_TEXT: radiometric filter-binding kinase assay
CONDITION_SUMMARY: compound 10.0 µM
residual activity strictly less than 80% = Criterion met. Otherwise Criterion not met.

[
  {
    "SMILES_REPR": "CN1C(=O)[C@@H](Cc2c[nH]c3ccccc23)NC1=S",
    "CATEGORY": "Criterion not met"
  },
  {
    "SMILES_REPR": "COc1cc2ncn(-c3cc(OCc4ccccc4S(C)(=O)=O)c(C#N)s3)c2cc1OC",
    "CATEGORY": "Criterion met"
  },
  {
    "SMILES_REPR": "Oc1ccc(/C=C/c2cc(O)cc(O)c2)cc1",
    "CATEGORY": "Criterion not met"
  }
]

Dear colleague, could you confirm whether residual activity of "O=C(NOC[C@H](O)CO)c1ccc(F)c(F)c1Nc1ccc(I)cc1Cl" falls below 80%? Thanks. Criterion not met

Another compound: "O=C(Nc1ccccc1-c1cn2c(CN3CCNCC3)csc2n1)c1cnc2ccccc2n1" Criterion met

Another compound: "CCc1cncnc1N1CCN(Cc2nc3cc(C(F)(F)F)ccc3[nH]2)CC1" Criterion met

Another compound: "O=S(=O)(c1ccc(F)c2nonc12)N1CCN(c2ncc(C(F)(F)F)cc2Cl)CC1" Criterion not met

Another compound: "Cc1ccc(-c2ccc3c(ccc4sc5c(c43)NC[C@@H](C)NC5=O)n2)cn1" Criterion met

Another compound: "NC(=O)c1c(NC(=O)C2CC2)sc2c1CCCC2" Criterion met

---

Give residual activity for every item shown.
TESTED_SYSTEM: PRKAA1 PRKAB2 PRKAG1 (human) (UniProt O43741+Q13131+P54619)
Sequence (O43741 whole entry, looked up): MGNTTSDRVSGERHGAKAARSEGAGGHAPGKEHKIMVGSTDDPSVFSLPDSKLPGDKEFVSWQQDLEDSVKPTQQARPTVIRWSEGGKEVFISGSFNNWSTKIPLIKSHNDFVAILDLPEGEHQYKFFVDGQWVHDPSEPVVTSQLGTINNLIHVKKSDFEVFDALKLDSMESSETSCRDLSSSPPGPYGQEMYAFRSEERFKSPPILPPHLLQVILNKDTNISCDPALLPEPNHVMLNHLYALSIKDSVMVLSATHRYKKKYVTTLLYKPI
Sequence (P54619 whole entry, looked up): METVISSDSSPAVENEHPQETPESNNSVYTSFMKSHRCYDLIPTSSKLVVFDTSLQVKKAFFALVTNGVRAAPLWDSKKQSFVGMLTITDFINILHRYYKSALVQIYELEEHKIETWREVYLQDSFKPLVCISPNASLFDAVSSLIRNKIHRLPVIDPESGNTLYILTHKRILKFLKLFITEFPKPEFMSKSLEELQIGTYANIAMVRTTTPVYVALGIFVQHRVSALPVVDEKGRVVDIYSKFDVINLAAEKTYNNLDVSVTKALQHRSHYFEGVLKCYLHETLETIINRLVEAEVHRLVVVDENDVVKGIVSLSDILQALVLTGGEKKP
Sequence (Q13131 whole entry, looked up): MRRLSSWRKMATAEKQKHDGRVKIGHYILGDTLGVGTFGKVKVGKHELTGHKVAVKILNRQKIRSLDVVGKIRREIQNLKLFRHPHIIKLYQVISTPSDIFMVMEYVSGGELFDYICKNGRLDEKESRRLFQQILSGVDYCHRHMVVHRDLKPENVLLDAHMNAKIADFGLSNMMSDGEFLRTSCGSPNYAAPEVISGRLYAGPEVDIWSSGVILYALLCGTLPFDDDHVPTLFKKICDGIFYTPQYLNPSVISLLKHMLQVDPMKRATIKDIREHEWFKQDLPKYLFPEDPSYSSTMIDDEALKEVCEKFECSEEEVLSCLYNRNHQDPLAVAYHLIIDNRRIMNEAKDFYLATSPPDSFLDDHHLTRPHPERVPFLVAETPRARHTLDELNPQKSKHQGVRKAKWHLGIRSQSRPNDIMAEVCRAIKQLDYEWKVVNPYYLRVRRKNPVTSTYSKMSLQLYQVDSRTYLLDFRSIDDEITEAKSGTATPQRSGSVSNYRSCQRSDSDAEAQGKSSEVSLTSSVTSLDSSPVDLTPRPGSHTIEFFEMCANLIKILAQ
PROTOCOL_TEXT: radiometric filter-binding kinase assay
CONDITION_SUMMARY: compound 1.0 µM
Give bare numbers, in %.

Study these solved cases before continuing.
[
  {
    "COMPOUND": "C=C1C(=O)OC2C1CC/C(C)=C/CCC1(C)OC21 (centres undefined)",
    "residual activity (%)": 111
  },
  {
    "COMPOUND": "CC1=C(CO)C(=O)O[C@@H]([C@@H](C)[C@H]2CC[C@H]3[C@@H]4C[C@H]5O[C@]56[C@@H](O)C=CC(=O)[C@]6(C)C4CC[C@]23C)C1 (some centres undefined)",
    "residual activity (%)": 120
  },
  {
    "COMPOUND": "Cc1ccc(-c2ccc3c(ccc4sc5c(c43)NC[C@@H](C)NC5=O)n2)cn1",
    "residual activity (%)": 21
  }
]

Next:
Name the recorded residual activity for Nc1cccc2c1CN(C1CCC(=O)NC1=O)C2=O (centres undefined) . 106

---

TESTED_SYSTEM: NEK6 (human) (UniProt Q9HC98)
Sequence (Q9HC98 whole entry, looked up): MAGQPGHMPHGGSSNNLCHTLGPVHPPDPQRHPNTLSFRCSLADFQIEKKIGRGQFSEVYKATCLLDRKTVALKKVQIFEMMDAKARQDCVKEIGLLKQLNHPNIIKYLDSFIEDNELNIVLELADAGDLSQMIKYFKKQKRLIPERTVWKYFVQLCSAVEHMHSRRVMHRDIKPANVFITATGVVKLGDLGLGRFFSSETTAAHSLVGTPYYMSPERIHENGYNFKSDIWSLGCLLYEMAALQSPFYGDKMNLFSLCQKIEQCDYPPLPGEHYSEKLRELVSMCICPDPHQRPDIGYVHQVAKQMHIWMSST
PROTOCOL_TEXT: radiometric filter-binding kinase assay
CONDITION_SUMMARY: compound 10.0 µM
Give residual activity for every item shown.
One number for each entry, in %.

[
  {
    "COMPOUND": "Cc1ccc(Sc2cnc(Nc3cccc(Br)n3)s2)cc1C(=O)N1CCN(C(=O)CN)CC1",
    "residual activity / %": 85
  }
]

For each entry beneath this line, provide reported residual activity.
1. Oc1ccc(/C=C/c2cc(O)cc(O)c2)cc1
2. O=C(Nc1cccnc1)c1cc(-c2ccnc(F)c2)ccc1OCc1ccccc1
3. O=C1Nc2nc(-c3c(O)cccc3OCC3CC3)cc(C3CCCNC3)c2CO1 (centres undefined)
4. CNc1nc(-c2ccc3c(N)n[nH]c3c2)cc(N2C[C@@H](C(=O)NC3CCCCC3)CC[C@H]2C)n1
5. Cc1ccc(-c2ccc3c(ccc4sc5c(c43)NC[C@@H](C)NC5=O)n2)cn1
6. NC(=O)c1ccc(-c2ccc(Oc3cncc4sc(-c5nn[nH]n5)cc34)cc2)cc1

1: 96; 2: 65; 3: 93; 4: 79; 5: 66; 6: 94

For each entry beneath this line, provide reported residual activity.
1. NC(=O)c1c(NC(=O)C2CC2)sc2c1CCCC2
2. c1ccc2c(-c3cnn4cc(-c5ccc(N6CCNCC6)cc5)cnc34)ccnc2c1

[93, 88]

All values here come from the kinase profiling compilation of Christmann-Franck et al. (2016).
